SYSTEM_TESTED: pooled human IgG
READOUT_TYPE: Enzyme Activity Endpoint Assay: Fc (ng/µL)

| PROTEIN | MEASURED_RESULT |
| --- | --- |
| PRT-38 (protein) MANQEIRYSEVTPYHVTSVWTKGVTPPANFTQGEDVFHAPYVANQGWYDITKTFNGKDDLLCGAATAGNMLHWWFDQNKDQIKRYLEEHPEKQKINFNGEQMFDVKEAIDTKNHQLDSKLFEYFKEKAFPYLSTKHLGVFPDHVIDMFINGYRLSLTNHGPTPVKEGSKDPRGGIFDAVFTRGDQSKLLTSRHDFKEKNLKEISDLIKKELTEGKALGLSHTYANVRINHVINLWGADFDSNGNLEAIYVTDSDSNASIGMKKYFVGVNSAGKVAISAKEIKEDNIGAQVLGLFTLSTGQDSWNQTN | 124 |
| PRT-21 (protein) MANQEIRYSEVSPSTVTSVWTKGVTPPTNFTYGEDVLHAPYVANQGWYDITKTFNGKDDLLCGAATAGNMLHWWFDQNKEQIENYLKKHPEKQKINFNGEQMFDVKEAIDTKDSQLDSKLFEYFKEKAFPYLSTKHLGVFPDHVIDMFINGYRLSLTNHGPTPVKRGSKDPRGGIFDAVFTRGDQSKLLTNRHDFKEKTLKEISDLIKQELTEGKALGISHTYANVRINHVINLWGADFDAEGNLEAIYVTDSDSNASIGMKKYFVGVNSNGKVAISAKEIEEDNIGAQVLGLFTLSTGQDIWNQTN | 111 |
| PRT-19 (protein) MANQEIRYSEESPSVVTSVWTKGVTPPANFTYGEDVFHAPYIANQGWYDITKTFNGKDDLLCGAATAGNMLHWWFDQNKDEIEAYLKKHPEKQKINFNGEQMFDVKEAIDTKDDQTNSKLFNYFKDKAFPYLSTKHLGVFPDHVLDMFINGYRLNLTNHGPTPVKEGSKDPRGGIFDAVFTRGDQSKLLTSRHDFKEKTLKEISDLIKQELTEGKALGLSHTYANVRINHVINLWGADFNSEGNLKAIYVTDSDSNASIGMKKYFVGVNAAGKVAISAKEIKDDNIGAQVLGLFTLSTGQDIWNQTN | 108 |
| PRT-535 (protein) MANQEIRYSGDSEWANKKVWVYGITPPEEKAWFYSTYYLPWKKEYGWYDCNKRNPTADGMMCWAATASNLMHWWIAQNKEYIDLYGDKYKGPDKINFNGEQMFDVKEYIDPLDKPQESDIFQCFIDKAFADLSTKHEAGKGDEGINWFIHGIIPSYPAHGPTPVKLRYPYNPAGYFKDVFPRGDGVVLLGNNGDFKELGKERFNETIKDALANKKGIGLSIGPVNVRSSHVVTMWGAEFDENGDVSYIYMADNNDRWGVGCIRYQIVYVEGGTYTCYKTEIIGSDRPIPINRLVTLELGEEYWKQTNLEHHHHHH | 0 |
| PRT-601 (protein) MANQEIRYSEETPSTVTSVWTKGVTPPTDFIQNEDVLHAPYIANQGWYDITKTFNGKDDLLCGAATAGNMLHWWFDQNKEQIKNYLKKHPEKQKINFNGEQMFDVKEAIDTKNHQLDSALFEYFKDKAFPYLSTKHLGVFPDHVIDMFINGYRLSLTNHGPTPVKRGTKDPRGGIFDAVFTRGDQSKLLTSRHDFKEKNLNEISDLIKKELTEGKALGLSHTYANVRINHVINLWGADFNANGNLEAIYVTDSDSNASIGMKKYFVGVNSAGKVAISAKEIKGDNIGAQVLGLFTLSTGQDSWNQTNLEHHHHHH | 529 |
| PRT-11 (protein) MANQEIRYSEETPYHVTSVWTKGVTPPANFTQGEDVFHAPYVANQGWYDITKTFNGKDDLLCGAATAGNMLHWWFDQNKDQIEKYLKEHPEKQKINFNGEQMFDVKEAIDTKDSQTDSKLFEYFKEKAFPYLSTKHLGVFPDHVIDMFINGYRLSLTNHGPTPVKEQSKDPRGGIFDAVFTRGDQSKLLTSRHDFKEKTLKEISDLIKKELSEGKALGLSHTYANVRINHVINLWGADFDSNGNLKAIYVTDSDSNASIGMKKYFVGVNSAGKVAISAKEIKEDNIGAQVLGLFTLSTGQDIWNQTN | 100 |
| PRT-25 (protein) MANQEIRYSEVTPYHVTSVWTKGVTPPANFTQGEDVFHAPYVANQGWYDITKTFNGKDDLLCGAATAGNMLHWWFDQNKDQIERYLKEHPEKQKINFNGEQMFDVKEAIDTKDSQTDSKLFEYFKEKAFPYLSTKHLGVFPDHVIDMFINGYRLSLTNHGPTPVKEGSKDPRGGIFDAVFTRGDQSKLLTSRHDFKEKNLKEISDLIKQELTEGKALGLSHTYANVRINHVINLWGADFDSNGNLEAIYVTDSDSNASIGMKKYFVGVNSAGKVAISAKEIEEDNIGAQVLGLFTLSTGQDIWNQTN | 123 |
| PRT-3 (protein) MRNATEAYAKEVPHQITSVWTKGVTPLTPEQFRYNNEDVIHAPYLAHQGWYDITKAFDGKDNLLCGAATAGNMLHWWFDQNKTEIEAYLSKHPEKQKIIFNNQELFDLKAAIDTKDSQTNSQLFNYFRDKAFPNLSARQLGVMPDLVLDMFINGYYLNVFKTQSTDVNRPYQDKDKRGGIFDAVFTRGDQTTLLTARHDLKNKGLNDISTIIKQELTEGRALALSHTYANVSISHVINLWGADFNAEGNLEAIYVTDSDANASIGMKKYFVGINAHGHVAISAKKIEGENIGAQVLGLFTLSSGKDIWQKLS | 72 |
